The origin of these recorded values is ChEMBL document CHEMBL3046897.

System: Escherichia coli
Test: Antibacterial activity against Escherichia coli at 100 ug/disk after 24 hr by paper disk diffusion method
Assay type: functional
Conditions: read-out: IZ
value_type: zone of inhibition at 100 µg/disc (mm)
Value expressed in mm; do not type the unit.

Identify measured zone of inhibition at 100 µg/disc associated with Cc1cc(=O)oc2cc(Oc3nc(Nc4ccc(N5C(=O)C(CN6CCN(c7ccccn7)CC6)SC5c5ccc(F)cc5)cc4)nc(N(C)C)n3)ccc12 (stereo not drawn) 20

Identify measured zone of inhibition at 100 µg/disc associated with Cc1ccc(C2SCC(=O)N2c2ccc(Nc3nc(Oc4ccc5c(C)cc(=O)oc5c4)nc(N(C)C)n3)cc2)cc1 (stereo not drawn) 13

Identify measured zone of inhibition at 100 µg/disc associated with "Cc1cc(=O)oc2cc(Oc3nc(Nc4ccc(/N=C/c5ccc(O)cc5)cc4)nc(N(C)C)n3)ccc12" 20

Identify measured zone of inhibition at 100 µg/disc associated with COc1ccc(C2SCC(=O)N2c2ccc(Nc3nc(Oc4ccc5c(C)cc(=O)oc5c4)nc(N(C)C)n3)cc2)cc1 (stereo not drawn) 12

Identify measured zone of inhibition at 100 µg/disc associated with Cc1cc(=O)oc2cc(Oc3nc(Nc4ccc(N5C(=O)CSC5c5ccccc5Br)cc4)nc(N(C)C)n3)ccc12 (stereo not drawn) 17

Identify measured zone of inhibition at 100 µg/disc associated with "Cc1cc(=O)oc2cc(Oc3nc(Nc4ccc(/N=C/c5ccc(F)cc5)cc4)nc(N(C)C)n3)ccc12" 16

Identify measured zone of inhibition at 100 µg/disc associated with COc1ccc(C2SCC(=O)N2c2ccc(Nc3nc(Oc4ccc5c(C)cc(=O)oc5c4)nc(N(C)C)n3)cc2)cc1OC (stereo not drawn) 11

Identify measured zone of inhibition at 100 µg/disc associated with Cc1cc(=O)oc2cc(Oc3nc(Nc4ccc(N5C(=O)CSC5c5ccc([N+](=O)[O-])cc5)cc4)nc(N(C)C)n3)ccc12 (stereo not drawn) 13

Identify measured zone of inhibition at 100 µg/disc associated with Cc1cc(=O)oc2cc(Oc3nc(Nc4ccc(N5C(=O)C(CN6CCN(c7ccccn7)CC6)SC5c5ccc(O)cc5)cc4)nc(N(C)C)n3)ccc12 (stereo not drawn) 30

Identify measured zone of inhibition at 100 µg/disc associated with Cc1cc(=O)oc2cc(Oc3nc(Nc4ccc(N5C(=O)CSC5c5ccc(Cl)cc5)cc4)nc(N(C)C)n3)ccc12 (stereo not drawn) 20

Identify measured zone of inhibition at 100 µg/disc associated with "Cc1cc(=O)oc2cc(Oc3nc(Nc4ccc(/N=C/c5ccc(Cl)cc5Cl)cc4)nc(N(C)C)n3)ccc12" 13

Identify measured zone of inhibition at 100 µg/disc associated with Cc1cc(=O)oc2cc(Oc3nc(Nc4ccc(N5C(=O)C(CN6CCN(c7ccccn7)CC6)SC5c5ccc(O)cc5O)cc4)nc(N(C)C)n3)ccc12 (stereo not drawn) 23

----------
System: Aspergillus clavatus
Experiment: Antifungal activity against Aspergillus clavatus at 100 ug/disc after 48 hr by paper disk diffusion method
Type: functional
Conditions: read-out: IZ
Could you please report measured zone of inhibition at 100 µg/disc for the items listed next?

Identify measured zone of inhibition at 100 µg/disc associated with "Cc1cc(=O)oc2cc(Oc3nc(Nc4ccc(/N=C/c5ccccc5)cc4)nc(N(C)C)n3)ccc12" < 10 mm

Identify measured zone of inhibition at 100 µg/disc associated with COc1ccc(C2SCC(=O)N2c2ccc(Nc3nc(Oc4ccc5c(C)cc(=O)oc5c4)nc(N(C)C)n3)cc2)cc1 (stereo not given) 16 mm

Identify measured zone of inhibition at 100 µg/disc associated with Cc1cc(=O)oc2cc(Oc3nc(Nc4ccc(N5C(=O)C(CN6CCN(c7ccccn7)CC6)SC5c5ccc(O)cc5)cc4)nc(N(C)C)n3)ccc12 (stereo not given) 21 mm

Identify measured zone of inhibition at 100 µg/disc associated with Cc1cc(=O)oc2cc(Oc3nc(Nc4ccc(N5C(=O)CSC5c5ccc([N+](=O)[O-])cc5)cc4)nc(N(C)C)n3)ccc12 (stereo not given) 17 mm

Identify measured zone of inhibition at 100 µg/disc associated with Cc1cc(=O)oc2cc(Oc3nc(Nc4ccc(N5C(=O)C(CN6CCN(c7ccccn7)CC6)SC5c5ccccc5)cc4)nc(N(C)C)n3)ccc12 (stereo not given) 16 mm

Identify measured zone of inhibition at 100 µg/disc associated with "COc1ccc(/C=N/c2ccc(Nc3nc(Oc4ccc5c(C)cc(=O)oc5c4)nc(N(C)C)n3)cc2)cc1OC" < 10 mm

Identify measured zone of inhibition at 100 µg/disc associated with CC(=O)N1CCN(c2ccc(OCC3COC(Cn4ccnc4)(c4ccc(Cl)cc4Cl)O3)cc2)CC1 (stereo not given) 31 mm

Identify measured zone of inhibition at 100 µg/disc associated with "Cc1cc(=O)oc2cc(Oc3nc(Nc4ccc(/N=C/c5cccc(F)c5)cc4)nc(N(C)C)n3)ccc12" 17 mm

Identify measured zone of inhibition at 100 µg/disc associated with "Cc1cc(=O)oc2cc(Oc3nc(Nc4ccc(/N=C/c5ccccc5C(=O)O)cc4)nc(N(C)C)n3)ccc12" < 10 mm

Identify measured zone of inhibition at 100 µg/disc associated with "Cc1cc(=O)oc2cc(Oc3nc(Nc4ccc(/N=C/c5ccc(O)cc5O)cc4)nc(N(C)C)n3)ccc12" 15 mm

Identify measured zone of inhibition at 100 µg/disc associated with COc1ccc(C2SCC(=O)N2c2ccc(Nc3nc(Oc4ccc5c(C)cc(=O)oc5c4)nc(N(C)C)n3)cc2)cc1OC (stereo not given) 13 mm

Identify measured zone of inhibition at 100 µg/disc associated with Cc1ccc(C2SCC(=O)N2c2ccc(Nc3nc(Oc4ccc5c(C)cc(=O)oc5c4)nc(N(C)C)n3)cc2)cc1 (stereo not given) 19 mm

Identify measured zone of inhibition at 100 µg/disc associated with "Cc1cc(=O)oc2cc(Oc3nc(Nc4ccc(/N=C/c5ccc(Cl)c(Cl)c5)cc4)nc(N(C)C)n3)ccc12" 15 mm

Identify measured zone of inhibition at 100 µg/disc associated with Cc1cc(=O)oc2cc(Oc3nc(Nc4ccc(N5C(=O)C(CN6CCN(c7ccccn7)CC6)SC5c5ccccc5C(=O)O)cc4)nc(N(C)C)n3)ccc12 (stereo not given) 15 mm

Identify measured zone of inhibition at 100 µg/disc associated with Cc1ccc(C2SC(CN3CCN(c4ccccn4)CC3)C(=O)N2c2ccc(Nc3nc(Oc4ccc5c(C)cc(=O)oc5c4)nc(N(C)C)n3)cc2)cc1 (stereo not given) 22 mm

----------
System: Escherichia coli
Assay: Antibacterial activity against Escherichia coli after 24 hr by agar streak dilution method
Format: functional
value_type: MIC (µg/mL)
Value expressed in µg/mL; do not type the unit.

Identify measured MIC associated with "COc1ccc(/C=N/c2ccc(Nc3nc(Oc4ccc5c(C)cc(=O)oc5c4)nc(N(C)C)n3)cc2)cc1OC" 100

Identify measured MIC associated with COc1ccc(C2SCC(=O)N2c2ccc(Nc3nc(Oc4ccc5c(C)cc(=O)oc5c4)nc(N(C)C)n3)cc2)cc1 (configuration not stated) 100

Identify measured MIC associated with "Cc1cc(=O)oc2cc(Oc3nc(Nc4ccc(/N=C/c5ccccc5)cc4)nc(N(C)C)n3)ccc12" 100

Identify measured MIC associated with "COc1ccc(/C=N/c2ccc(Nc3nc(Oc4ccc5c(C)cc(=O)oc5c4)nc(N(C)C)n3)cc2)cc1" 100

Identify measured MIC associated with Cc1cc(=O)oc2cc(Oc3nc(Nc4ccc(N5C(=O)C(CN6CCN(c7ccccn7)CC6)SC5c5ccccc5C(=O)O)cc4)nc(N(C)C)n3)ccc12 (configuration not stated) 100

Identify measured MIC associated with Cc1cc(=O)oc2cc(Oc3nc(Nc4ccc(N5C(=O)CSC5c5ccccc5Br)cc4)nc(N(C)C)n3)ccc12 (configuration not stated) 100

Identify measured MIC associated with COc1ccc(C2SC(CN3CCN(c4ccccn4)CC3)C(=O)N2c2ccc(Nc3nc(Oc4ccc5c(C)cc(=O)oc5c4)nc(N(C)C)n3)cc2)cc1 (configuration not stated) 100

Identify measured MIC associated with Cc1cc(=O)oc2cc(Oc3nc(Nc4ccc(N5C(=O)CSC5c5ccc(Cl)cc5Cl)cc4)nc(N(C)C)n3)ccc12 (configuration not stated) 50

Identify measured MIC associated with "Cc1ccc(/C=N/c2ccc(Nc3nc(Oc4ccc5c(C)cc(=O)oc5c4)nc(N(C)C)n3)cc2)cc1" 100

Identify measured MIC associated with Cc1cc(=O)oc2cc(Oc3nc(Nc4ccc(N5C(=O)CSC5c5ccc([N+](=O)[O-])cc5)cc4)nc(N(C)C)n3)ccc12 (configuration not stated) 100

Identify measured MIC associated with "Cc1cc(=O)oc2cc(Oc3nc(Nc4ccc(/N=C/c5ccccc5Br)cc4)nc(N(C)C)n3)ccc12" 100

Identify measured MIC associated with Cc1cc(=O)oc2cc(Oc3nc(Nc4ccc(N5C(=O)CSC5c5ccc(Cl)c(Cl)c5)cc4)nc(N(C)C)n3)ccc12 (configuration not stated) 100

Identify measured MIC associated with Cc1cc(=O)oc2cc(Oc3nc(Nc4ccc(N5C(=O)C(CN6CCN(c7ccccn7)CC6)SC5c5ccc(F)cc5)cc4)nc(N(C)C)n3)ccc12 (configuration not stated) 25

Identify measured MIC associated with Cc1cc(=O)oc2cc(Oc3nc(Nc4ccc(N5C(=O)C(CN6CCN(c7ccccn7)CC6)SC5c5ccc(O)cc5O)cc4)nc(N(C)C)n3)ccc12 (configuration not stated) 12.5

Identify measured MIC associated with Cc1cc(=O)oc2cc(Oc3nc(Nc4ccc(N5C(=O)CSC5c5ccccc5C(=O)O)cc4)nc(N(C)C)n3)ccc12 (configuration not stated) 100

Identify measured MIC associated with "Cc1cc(=O)oc2cc(Oc3nc(Nc4ccc(/N=C/c5ccc(Cl)cc5)cc4)nc(N(C)C)n3)ccc12" 100

Identify measured MIC associated with "Cc1cc(=O)oc2cc(Oc3nc(Nc4ccc(/N=C/c5ccc(F)cc5)cc4)nc(N(C)C)n3)ccc12" 50

Identify measured MIC associated with Cc1cc(=O)oc2cc(Oc3nc(Nc4ccc(N5C(=O)C(CN6CCN(c7ccccn7)CC6)SC5c5ccc([N+](=O)[O-])cc5)cc4)nc(N(C)C)n3)ccc12 (configuration not stated) 100

Identify measured MIC associated with Cc1ccc(C2SCC(=O)N2c2ccc(Nc3nc(Oc4ccc5c(C)cc(=O)oc5c4)nc(N(C)C)n3)cc2)cc1 (configuration not stated) 100

Identify measured MIC associated with Cc1cc(=O)oc2cc(Oc3nc(Nc4ccc(N5C(=O)CSC5c5ccc(F)cc5)cc4)nc(N(C)C)n3)ccc12 (configuration not stated) 50

Identify measured MIC associated with Cc1cc(=O)oc2cc(Oc3nc(Nc4ccc(N5C(=O)C(CN6CCN(c7ccccn7)CC6)SC5c5ccc(Cl)c(Cl)c5)cc4)nc(N(C)C)n3)ccc12 (configuration not stated) 50

Identify measured MIC associated with Cc1cc(=O)oc2cc(Oc3nc(Nc4ccc(N5C(=O)CSC5c5cccc(F)c5)cc4)nc(N(C)C)n3)ccc12 (configuration not stated) 25

Identify measured MIC associated with Cc1ccc(C2SC(CN3CCN(c4ccccn4)CC3)C(=O)N2c2ccc(Nc3nc(Oc4ccc5c(C)cc(=O)oc5c4)nc(N(C)C)n3)cc2)cc1 (configuration not stated) 50

Identify measured MIC associated with "Cc1cc(=O)oc2cc(Oc3nc(Nc4ccc(/N=C/c5ccc(Cl)cc5Cl)cc4)nc(N(C)C)n3)ccc12" 100

Identify measured MIC associated with Cc1cc(=O)oc2cc(Oc3nc(Nc4ccc(N5C(=O)C(CN6CCN(c7ccccn7)CC6)SC5c5ccccc5Br)cc4)nc(N(C)C)n3)ccc12 (configuration not stated) 50

Identify measured MIC associated with Cc1cc(=O)oc2cc(Oc3nc(Nc4ccc(N5C(=O)CSC5c5ccc(O)cc5O)cc4)nc(N(C)C)n3)ccc12 (configuration not stated) 25

Identify measured MIC associated with "Cc1cc(=O)oc2cc(Oc3nc(Nc4ccc(/N=C/c5ccc(Cl)c(Cl)c5)cc4)nc(N(C)C)n3)ccc12" 100
